Provide the reported fold induction at 1.11 µM of each item.
tested on: primary human total T-cells; experiment: T-cell activation assessed by CD69 expression; assay type: cell-based; conditions: CD3 alone stimulation, CD8 T-cells, 1.11 μM, read-out: % CD69+ (CD8)

# input compound: C[C@H](Cc1nncn1C)c1cccc(N2Cc3c(cccc3C(F)(F)F)C2=O)c1 [Compound 255a] ; wanted: its fold induction at 1.11 µM
≤ 1.2

# input compound: `C[C@H](Cc1nncn1C)c1cccc(N2Cc3c(cc(CN4CC[C@](C)(O)C4)cc3C(F)(F)F)C2=O)c1` ; wanted: its fold induction at 1.11 µM
1.2 to 1.4

# input compound: `Cn1cnnc1CC1(c2cccc(N3Cc4c(cc(CN5CC[C@H](C#N)C5)cc4C(F)(F)F)C3=O)c2)COC1` ; wanted: its fold induction at 1.11 µM
1.2 to 1.4

# input compound: `COC1CN(Cc2cc3c(c(C(F)(F)F)c2)CN(c2cccc([C@@](C)(F)C(F)(F)c4nncn4C)c2)C3=O)C1` ; wanted: its fold induction at 1.11 µM
1.2 to 1.4

# input compound: `C[C@H](Cc1nncn1C)c1cccc(NC(=O)c2nc(C(F)(F)F)c[nH]2)c1` ; wanted: its fold induction at 1.11 µM
≤ 1.2

# input compound: `C[C@H](Cc1nncn1C)c1cccc(N2Cc3c(cc(CN4CC(C)(O)C4)cc3C(F)(F)F)C2=O)c1` ; wanted: its fold induction at 1.11 µM
1.2 to 1.4

====

tested on: primary human NK cells; test: NK cell activation assessed by cytokine secretion (coculture with K562 NucRed target cells); assay type: cell-based; conditions: K562, NK cells cocultured with K562 NucRed, 1:1 E/T, 2.5 μM compound, read-out: TNFα secretion, fold change over baseline
metric-name: fold induction at 2.5 µM

Find fold induction at 2.5 µM (primary human NK cells) for the entry `Cn1cnnc1CC1(c2cccc(N3Cc4c(cc(CN5CC(F)C5)cc4C(F)(F)F)C3=O)c2)COC1`
2.01 to 5

Find fold induction at 2.5 µM (primary human NK cells) for the entry C[C@H](Cc1nncn1C)c1cccc(NC(=O)c2cccc(C(F)(F)F)n2)c1 [Compound 183a]
2.01 to 5

Find fold induction at 2.5 µM (primary human NK cells) for the entry `Cn1cnnc1C(F)(F)[C@](C)(F)c1cccc(N2Cc3c(cc(N4CCNCC4)cc3C(F)(F)F)C2=O)c1`
2.01 to 5

Find fold induction at 2.5 µM (primary human NK cells) for the entry `C[C@H](Cc1nncn1C)c1cccc(NC(=O)c2cccc(CCO)n2)c1`
1.01 to 2

Find fold induction at 2.5 µM (primary human NK cells) for the entry `Cn1cnnc1C(F)(F)[C@](C)(F)c1cccc(N2Cc3c(cc(CN4CC[C@@H](C#N)C4)cc3C(F)(F)F)C2=O)c1`
2.01 to 5

Find fold induction at 2.5 µM (primary human NK cells) for the entry `Cc1cc(C(=O)Nc2cccc([C@@H](C)Cc3nncn3C)c2)nc(C2CC2)n1`
< 1

====

Provide the reported fold induction at 8 µM of each item.
system: T-cell; experiment: IL-2 secretion from T-cells stimulated with anti-CD3 antibody alone (Biological Example 2); assay type: cell-based; conditions: 8 μM compound, primary human total T-cells, read-out: IL-2 secretion, Anti-CD3 stimulation, fold change over baseline

# input molecule: `Cn1cnnc1C(F)(F)[C@](C)(F)c1cccc(N2Cc3c(cc(CN4CC[C@H](F)C4)cc3C(F)(F)F)C2=O)c1` ; wanted: its fold induction at 8 µM
> 0.201

# input molecule: `C[C@H](Cc1nncn1C)c1cccc(N2Cc3c(cc(CN4CC[C@H](F)C4)cc3C(F)(F)F)C2=O)c1` ; wanted: its fold induction at 8 µM
> 0.201

# input molecule: `C[C@H](Cc1nncn1C)c1cccc(N2Cc3c(cc(C4CC4)nc3C3CC3)C2=O)c1` ; wanted: its fold induction at 8 µM
> 0.201

# input molecule: `C[C@@H](c1cc2c(c(C(F)(F)F)c1)CN(c1cccc(C3(Cc4nncn4C)COC3)c1)C2=O)N1CCC(F)(F)C1` ; wanted: its fold induction at 8 µM
> 0.201

# input molecule: `Cn1cnnc1CC1(c2cccc(N3Cc4c(cc(CN5CC(C)(C#N)C5)cc4C(F)(F)F)C3=O)c2)COC1` ; wanted: its fold induction at 8 µM
0.051 to 0.1

# input molecule: `Cn1cnnc1CC1(c2cccc(N3Cc4c(cc(CN5C[C@@H](F)[C@@H](F)C5)cc4C(F)(F)F)C3=O)c2)COC1` ; wanted: its fold induction at 8 µM
> 0.201

# input molecule: `C[C@H]1C=CCN1Cc1cc2c(c(C(F)(F)F)c1)CN(c1cccc(C3(Cc4nncn4C)COC3)c1)C2=O` ; wanted: its fold induction at 8 µM
> 0.201

====

Provide the reported pIC50 of each item.
target: Cbl-b (Homo sapiens); assay: Cbl-b inhibition assay (Cbl-b activity assay, FRET, Biological Example 1; 100 mM NaCl, 60 nM Src kinase); format: biochemical; conditions: upper bound stated in text lists; read-out: IC50 values in the Cbl-b inhibition assay of Biological Example 1
Sequence (Q13191 36-427): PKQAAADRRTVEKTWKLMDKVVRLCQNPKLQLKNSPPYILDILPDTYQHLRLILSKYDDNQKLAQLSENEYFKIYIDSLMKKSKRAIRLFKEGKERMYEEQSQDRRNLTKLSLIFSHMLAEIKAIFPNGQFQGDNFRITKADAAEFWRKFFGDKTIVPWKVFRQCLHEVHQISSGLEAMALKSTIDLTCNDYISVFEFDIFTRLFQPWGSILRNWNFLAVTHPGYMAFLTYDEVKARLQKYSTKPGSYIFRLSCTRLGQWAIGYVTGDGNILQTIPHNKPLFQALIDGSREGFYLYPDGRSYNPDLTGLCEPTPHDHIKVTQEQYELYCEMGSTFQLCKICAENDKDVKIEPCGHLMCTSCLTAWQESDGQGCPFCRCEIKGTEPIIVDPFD
pIC50: −log10 of the molar value.

# input compound: Cn1cnnc1C(F)(F)[C@](C)(F)c1cccc(N2Cc3c(cc(CN4CC[C@@H](S(C)(=O)=O)C4)cc3C(F)(F)F)C2=O)c1 [Compound 458] ; wanted: its pIC50
≥ 7.00

# input compound: C[C@H](Sc1nncn1C)c1ccnc(NC(=O)c2cccc(S(F)(F)(F)(F)F)c2)c1 [Compound 116] ; wanted: its pIC50
≥ 5.00

# input compound: COc1ccc(C(=O)Nc2cccc([C@H](C)Sc3nncn3C)c2)nc1C1CC1 [Compound 93] ; wanted: its pIC50
≥ 7.00

# input compound: CC(c1cccc(NC(=O)c2ccc(CO)c(C3CC3)n2)c1)C(F)(F)c1nncn1C (stereo not shown) [Compound 287] ; wanted: its pIC50
≥ 6.30

# input compound: CC(c1cc2c(c(C3CC3)n1)CN(c1cccc(C3(Cc4nncn4C)COC3)c1)C2=O)N1CC2(CC2)C1 (stereo not shown) [Example 586] ; wanted: its pIC50
≥ 7.00

# input compound: Cc1cc(C(=O)Nc2cc(C3CC3)cc(C3(Cc4nncn4C)COC3)c2)nc(C2CC2)n1 [Example 698] ; wanted: its pIC50
≥ 7.00

# input compound: C[C@H](Cc1nncn1C)c1cc(C2CCOCC2)nc(N2Cc3c(cccc3C(F)(F)F)C2=O)c1 [Example 686] ; wanted: its pIC50
≥ 6.00

# input compound: C[C@H](Cc1nncn1C)c1cccc(N2Cc3c(cc(-c4ccn[nH]4)cc3C(F)(F)F)C2=O)c1 [Compound 279] ; wanted: its pIC50
≥ 7.00

# input compound: C[C@H](Cc1nncn1C)c1cccc(NC(=O)c2cccc(C(C)(C)C)n2)c1 [Compound 321] ; wanted: its pIC50
≥ 7.00

# input compound: C[C@H](Sc1nncn1C)c1cccc(NC(=O)c2cccc(S(C)(=O)=O)n2)c1 [Compound 80] ; wanted: its pIC50
≥ 5.00

# input compound: CC(=O)Nc1ccnc(C(=O)Nc2cccc([C@H](C)Sc3nncn3C)c2)c1 [Compound 59] ; wanted: its pIC50
≥ 5.00

# input compound: Cc1nc(C(=O)Nc2cccc([C@H](C)Sc3nncn3C)c2)cs1 [Compound 41] ; wanted: its pIC50
≥ 5.00

# input compound: Cn1cnnc1CC1(c2cccc(N3Cc4c(cc(N5CCOCC5)cc4C(F)(F)F)C3=O)c2)COC1 [Example 567] ; wanted: its pIC50
≥ 7.00

# input compound: C[C@H](Sc1nncn1C)c1cccc(NC(=O)c2cc(C(=O)N3CC[C@H](N)C3)ccn2)c1 [Compound 147] ; wanted: its pIC50
≥ 5.00

# input compound: C[C@H](Cc1nncn1C)c1cccc(N2Cc3c(cc(N(C)[C@H]4CCNC4)cc3C(F)(F)F)C2=O)c1 [Compound 380] ; wanted: its pIC50
≥ 7.00

# input compound: CC(Sc1nncn1C)c1ccc(OC(F)(F)F)c(NC(=O)c2cccc(C(F)(F)F)n2)c1 (stereo not shown) [Compound 94] ; wanted: its pIC50
≥ 5.00

====

Provide the reported pKd of each item.
pKd: −log10 of the molar value.

Find pKd (Cbl-b (residues 36-427) (Homo sapiens)) for the entry `CC(C)Nc1cc([C@H](C)Cc2nncn2C)cc(N2Cc3c(cccc3C(F)(F)F)C2=O)n1`
> 7.00

Find pKd (Cbl-b (residues 36-427) (Homo sapiens)) for the entry `C[C@H](Sc1nncn1C)c1cccc(NC(=O)c2cc3cc(OCc4ccn[nH]4)ccc3cn2)c1`
6.00 to 6.52

Find pKd (Cbl-b (residues 36-427) (Homo sapiens)) for the entry C[C@H](Cc1nncn1C)c1cc(F)cc(N2Cc3c(cccc3C(F)(F)F)C2=O)c1 [Compound 281a]
6.52 to 7.00

Find pKd (Cbl-b (residues 36-427) (Homo sapiens)) for the entry CC(Sc1nncn1C)c1cc(N)nc(N2Cc3c(cccc3C(F)(F)F)C2=O)c1 (stereo not shown)
5.00 to 5.52
